# target.under.test: Env of HIV-1 strain 3415.v1.c1 (HIV-1)
# assay.notes: cell-based or functional assay
recorded.endpoint: neutralization IC50

Report neutralization IC50 for γ4κ3 (antibody, V domains shown) VH: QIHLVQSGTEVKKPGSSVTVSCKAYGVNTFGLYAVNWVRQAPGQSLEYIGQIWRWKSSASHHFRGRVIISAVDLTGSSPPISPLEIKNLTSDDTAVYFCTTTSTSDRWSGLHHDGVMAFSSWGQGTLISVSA VL: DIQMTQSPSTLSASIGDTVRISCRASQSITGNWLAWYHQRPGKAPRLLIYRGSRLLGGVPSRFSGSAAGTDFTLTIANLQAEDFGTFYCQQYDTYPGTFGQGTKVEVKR please.
> 15 mg/L

Which neutralization IC50 value belongs to γ59κ61 (antibody, V domains shown) VH: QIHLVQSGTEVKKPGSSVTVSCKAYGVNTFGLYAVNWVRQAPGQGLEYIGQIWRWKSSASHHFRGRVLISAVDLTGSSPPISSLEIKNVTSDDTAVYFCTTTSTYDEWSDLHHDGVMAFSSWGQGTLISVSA VL: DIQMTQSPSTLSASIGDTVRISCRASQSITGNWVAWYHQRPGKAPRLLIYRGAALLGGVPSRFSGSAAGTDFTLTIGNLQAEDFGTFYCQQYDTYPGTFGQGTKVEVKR ?
> 15 mg/L

Field request: neutralization IC50 | item: γ15κ3 (antibody, V domains shown) VH: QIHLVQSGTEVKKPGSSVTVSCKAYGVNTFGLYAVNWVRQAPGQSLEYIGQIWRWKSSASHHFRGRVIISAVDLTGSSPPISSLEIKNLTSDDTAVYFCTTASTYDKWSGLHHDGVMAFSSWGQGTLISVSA VL: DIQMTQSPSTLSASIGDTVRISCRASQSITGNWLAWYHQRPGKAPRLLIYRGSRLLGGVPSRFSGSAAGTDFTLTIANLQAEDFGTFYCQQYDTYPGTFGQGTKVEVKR
> 15 mg/L

Sample γ3κ11 (antibody, V domains shown) VH: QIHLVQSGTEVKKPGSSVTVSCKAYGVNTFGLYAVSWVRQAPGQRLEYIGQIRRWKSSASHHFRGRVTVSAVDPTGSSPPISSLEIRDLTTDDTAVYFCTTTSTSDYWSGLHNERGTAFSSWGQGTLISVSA VL: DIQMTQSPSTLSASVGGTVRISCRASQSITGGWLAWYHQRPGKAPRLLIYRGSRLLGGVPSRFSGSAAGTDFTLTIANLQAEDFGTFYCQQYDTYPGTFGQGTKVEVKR — what was its neutralization IC50?
> 15 mg/L

For the binder γ59κ11 (antibody, V domains shown) VH: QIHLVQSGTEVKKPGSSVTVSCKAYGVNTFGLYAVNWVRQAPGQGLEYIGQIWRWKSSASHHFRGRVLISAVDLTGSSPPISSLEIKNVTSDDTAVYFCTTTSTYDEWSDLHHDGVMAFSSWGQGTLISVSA VL: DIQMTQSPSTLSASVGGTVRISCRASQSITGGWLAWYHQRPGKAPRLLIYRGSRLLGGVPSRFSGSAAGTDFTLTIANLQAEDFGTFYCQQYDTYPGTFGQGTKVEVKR , what neutralization IC50 is on record?
> 15 mg/L

Find the recorded neutralization IC50 belonging to 8ANC3630 (antibody, V domains shown) VH: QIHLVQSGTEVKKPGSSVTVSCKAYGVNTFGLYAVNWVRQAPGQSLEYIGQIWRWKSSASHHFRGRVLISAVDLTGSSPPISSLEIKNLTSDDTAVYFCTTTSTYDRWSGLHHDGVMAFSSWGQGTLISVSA VL: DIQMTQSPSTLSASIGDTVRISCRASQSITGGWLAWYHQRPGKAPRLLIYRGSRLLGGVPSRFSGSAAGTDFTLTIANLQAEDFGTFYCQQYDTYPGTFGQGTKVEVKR and report it.
28 mg/L
